# tested_on: T1, recombinant human DLL4 (Cat# 1506-D4/CF, R&D Systems) (human, UniProt Q9NR61 27-529)
# T1 construct: Bought protein; also called hDLL4; rHuman DLL4
# experimental_details: ELISA, DLL4 coated, Fab 6.67 nM
quantity_kind: ELISA absorbance at 450 nm

{"binder": "Fab VH1-46_IGHD6-6*01_IGHJ1*01 S102A/S103P/S104F/H111F I51A/N52L/S54T/G56H & L6_IGKJ1*01 S28N/S30D/S31H (Fab, V domains shown, Fab made in E. coli: VH on CH1 with His6 and Flag tags (Plasmid A), VL on kappa CL (Plasmid C); also called H: APFF ALTH & L: NDH) VH: QVQLVQSGAEVKKPGASVKVSCKASGYTFTSYYMHWVRQAPGQGLEWMGIALPTGHSTSYAQKFQGRVTMTRDTSTSTVYMELSSLRSEDTAVYYCAREEYAPFSAEYFQFWGQGTLVTVSS VL: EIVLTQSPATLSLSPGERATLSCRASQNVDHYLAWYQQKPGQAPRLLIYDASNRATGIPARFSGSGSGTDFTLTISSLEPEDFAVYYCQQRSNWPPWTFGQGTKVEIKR", "result": "0.232 A450"}
{"binder": "Fab VH5-51_IGHD5-18*01>3_IGHJ4*01 G100K/G104T G24L/S28R/G35V & V3-4_IGLJ1*01 (Fab, V domains shown, Fab made in E. coli: VH on CH1 with His6 and Flag tags (Plasmid A), VL on lambda CL (Plasmid E); also called H: KT LRV & L: wt) VH: EVQLVQSGAEVKKPGESLKISCKLSGYRFTSYWIVWVRQMPGKGLEWMGIIYPGDSDTRYSPSFQGQVTISADKSISTAYLQWSSLKASDTAMYYCARRKYSYTYDYFDYWGQGTLVTVSS VL: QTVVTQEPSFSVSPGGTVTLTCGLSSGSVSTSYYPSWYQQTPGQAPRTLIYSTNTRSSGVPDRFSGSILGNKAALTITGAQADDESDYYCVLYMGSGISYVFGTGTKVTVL", "result": "0.005 A450"}
{"binder": "Fab VH1-46_IGHD6-6*01_IGHJ1*01 S102A/S103P/S104F/H111F N52L/S54T/G56H & L6_IGKJ1*01 S28N/S30D/S31H (Fab, V domains shown, Fab made in E. coli: VH on CH1 with His6 and Flag tags (Plasmid A), VL on kappa CL (Plasmid C); also called H: APFF LTH & L: NDH) VH: QVQLVQSGAEVKKPGASVKVSCKASGYTFTSYYMHWVRQAPGQGLEWMGIILPTGHSTSYAQKFQGRVTMTRDTSTSTVYMELSSLRSEDTAVYYCAREEYAPFSAEYFQFWGQGTLVTVSS VL: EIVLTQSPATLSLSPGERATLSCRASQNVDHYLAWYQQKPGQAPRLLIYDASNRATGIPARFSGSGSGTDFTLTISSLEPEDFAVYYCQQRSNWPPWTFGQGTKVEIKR", "result": "0.739 A450"}
{"binder": "Fab VH1-46_IGHD6-6*01_IGHJ1*01 S102A/S103P/S104F/H111F I51A/N52L/S54T/G56H & L6_IGKJ1*01 S28N/S30D/S31H S52L/A55S (Fab, V domains shown, Fab made in E. coli: VH on CH1 with His6 and Flag tags (Plasmid A), VL on kappa CL (Plasmid C); also called H: APFF ALTH & L: NDH LS) VH: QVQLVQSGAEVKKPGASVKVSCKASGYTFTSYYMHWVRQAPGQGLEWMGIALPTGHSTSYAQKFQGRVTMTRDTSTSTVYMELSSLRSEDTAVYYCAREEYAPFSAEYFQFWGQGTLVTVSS VL: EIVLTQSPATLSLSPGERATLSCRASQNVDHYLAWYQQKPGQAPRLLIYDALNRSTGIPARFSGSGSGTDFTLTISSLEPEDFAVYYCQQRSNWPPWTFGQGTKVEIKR", "result": "0.282 A450"}
